Target: BACE2 (Homo sapiens, UniProt Q9Y5Z0)
Sequence (Q9Y5Z0 63-518): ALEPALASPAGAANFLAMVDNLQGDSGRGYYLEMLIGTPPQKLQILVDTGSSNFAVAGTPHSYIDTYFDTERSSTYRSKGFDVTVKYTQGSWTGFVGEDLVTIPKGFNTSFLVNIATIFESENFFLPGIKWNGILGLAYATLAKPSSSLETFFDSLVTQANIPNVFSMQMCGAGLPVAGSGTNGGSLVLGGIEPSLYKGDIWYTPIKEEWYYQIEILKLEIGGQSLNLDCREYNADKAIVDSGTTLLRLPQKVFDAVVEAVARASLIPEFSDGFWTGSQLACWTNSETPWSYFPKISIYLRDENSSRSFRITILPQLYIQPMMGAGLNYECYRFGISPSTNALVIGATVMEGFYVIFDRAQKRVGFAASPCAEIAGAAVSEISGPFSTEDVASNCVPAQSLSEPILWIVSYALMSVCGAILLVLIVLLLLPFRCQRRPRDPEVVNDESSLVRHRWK
Test: BACE2 biochemical competitive radioligand binding assay (Test Example 1-1/1-2)
Design: expressed in transfected cells; host or cells: HEK 293 (membrane preparation)
Conditions: competition with tritiated non-selective BACE1/BACE2 inhibitor, BACE2-containing HEK 293 derived membrane, pH 6.2
pKi: −log10 of the molar value.
reported.metric: pKi

The cases that follow already have their pKi on record.
[
  {
    "compound": "C[C@@]1(S(C)(=O)=O)CC[C@@](CF)(c2cc(NC(=O)c3cc4c(cn3)OC(F)(F)O4)ccc2F)N=C1N",
    "pKi": 7.10
  },
  {
    "compound": "CC1(S(C)(=O)=O)CCC(CF)(c2cc(NC(=O)c3ncc4c(c3F)OCCO4)ccc2F)N=C1N (stereo not shown)",
    "pKi": 6.82
  }
]

(P) CC1(S(C)(=O)=O)CCC(CF)(c2cc(NC(=O)c3ncc4c(c3Cl)OCCO4)ccc2F)N=C1N (stereo not shown)
(Q) CC1(S(C)(=O)=O)CCC(CF)(c2cc(NC(=O)c3cc4c(cn3)OCO4)ccc2F)N=C1N (stereo not shown)
(R) CC1(S(C)(=O)=O)CCC(CF)(c2cc(NC(=O)c3ncc4c(c3F)OC(F)(F)O4)ccc2F)N=C1N (stereo not shown)
(S) CC1(S(=O)(=O)C2CC2)CCC(CF)(c2cc(NC(=O)c3cc4c(cn3)OC(F)(F)CO4)ccc2F)N=C1N (stereo not shown)
(T) CC(C)S(=O)(=O)C1(C)CCC(CF)(c2cc(NC(=O)c3cc4c(cn3)OC(F)(F)CO4)ccc2F)N=C1N (stereo not shown)
Exam item: list the entries in increasing order of pKi. Dear reader, please state the labels in the requested order.
P, T, R, S, Q
